# Lookup of reported GI50 keyed by entry
- Test system: OVCAR-4
- protocol-description: NCI tumour cell line growth inhibition, 48 h
Calls of active or inactive are those of the source. Rule as the data show it: active = GI50 up to about 1.1 µM and inactive = higher.
parameter-measured: GI50

compound	tested-on	parameter-measured	value-reported
N#Cc1cnsc1	OVCAR-4	GI50	> 100 µM (inactive)
COc1ccc(C(=O)c2cc(OC)c(OC)c(OC)c2)cc1	OVCAR-4	GI50	28.6 µM (inactive)
N#Cc1ccccc1Sc1ccccc1N	OVCAR-4	GI50	64.4 µM (inactive)
C[C@]12CCC(=O)C=C1CC[C@@H]1[C@@H]2[C@@H](O)C[C@@]2(C)[C@H]1CC[C@]2(O)C(=O)COC(=O)COCC(=O)O	OVCAR-4	GI50	> 100 µM (inactive)
O=C1NC(O)c2cc3ccccc3cc2O1 (stereo unspecified)	OVCAR-4	GI50	76 µM (inactive)
Cc1c([N+](=O)[O-])ccc2c(NCCCN(C)C)ccnc12	OVCAR-4	GI50	17.4 µM (inactive)
Cc1ccc(C(=O)NC(C)C)cc1/N=N/N(C)C	OVCAR-4	GI50	> 100 µM (inactive)
O=c1c2ccccc2n2nnc3ccc(NCCNCCO)c1c32	OVCAR-4	GI50	1.71 µM (inactive)
Nc1ccc(/N=N/c2c(S(=O)(=O)O)cc3ccccc3c2S(=O)(=O)O)cc1	OVCAR-4	GI50	> 100 µM (inactive)
CC(C)(C)N/N=C(\Cc1occc(=O)c1O)C(=O)Nc1ccc([N+](=O)[O-])cc1[N+](=O)[O-]	OVCAR-4	GI50	> 100 µM (inactive)
COC(=O)/C(=C1\OC(=O)C(c2ccc(Cl)cc2)=C1O)c1ccc(Cl)cc1	OVCAR-4	GI50	9.71 µM (inactive)
CCCc1cc(=O)oc2c(C=O)c(O)cc(O)c12	OVCAR-4	GI50	25.8 µM (inactive)
CC1OC(OC2C(O)C(O)C(O)C(O)C2O)C(N)CC1NC(=N)C(=O)O (stereo unspecified)	OVCAR-4	GI50	> 100 µM (inactive)
Cc1sc2nc3n(c(=O)c2c1C)N=C(c1ccccc1)CS3	OVCAR-4	GI50	> 100 µM (inactive)
CCOC(=O)NC1CN2CCC1CC2 (stereo unspecified)	OVCAR-4	GI50	> 100 µM (inactive)
COC(=O)[C@]1(CCC(C)=O)C(=O)C=CN([C@H](C)c2ccccc2)[C@@H]1Cc1ccc(OC)c(OCc2ccccc2)c1I	OVCAR-4	GI50	19.3 µM (inactive)

----------
- System: NCI/ADR-RES
- protocol-description: NCI tumour cell line growth inhibition, 48 h
Activity calls are given as the source filed them. Cut-off read from the data, not from the text of the source: active = GI50 up to about 1.1 µM and inactive = higher.
# GI50 annotations

compound	tested-on	GI50
C=CCN1C(=O)C[C@H](Cc2ccccc2)NC(=O)C[C@H](Cc2ccccc2)N(CC=C)C(=O)C[C@H](Cc2ccccc2)NC(=O)C[C@@H]1Cc1ccccc1	NCI/ADR-RES	4.37 µM (inactive)
COc1cc2c(c(OC)c1O)-c1ccc(OC)c(=O)cc1[C@@H](NC(=O)C(F)(F)F)CC2	NCI/ADR-RES	3.72 µM (inactive)
COc1c(N2CCCCC2)c2c(=O)c3ccccc3oc2c2cc(C)oc12	NCI/ADR-RES	15.3 µM (inactive)
Cc1cc(Cc2cc(C)c(N)cc2N)c(N)cc1N	NCI/ADR-RES	> 100 µM (inactive)
COc1ccc(-n2c(N)c(C#N)c(C#N)c2-c2cccc([N+](=O)[O-])c2)cc1	NCI/ADR-RES	> 100 µM (inactive)
O=C1CSC2(CC(/C=C/C=C/c3ccccc3)=NN2c2cccc(S(=O)(=O)O)c2)N1c1nc2ccccc2s1 (stereo not given)	NCI/ADR-RES	51.1 µM (inactive)
c1cc(-c2csc(-c3ccsc3)c2)cs1	NCI/ADR-RES	> 100 µM (inactive)
N#Cc1nc(C2CC2)oc1N	NCI/ADR-RES	> 100 µM (inactive)
C1CN2CCNCCN(CCN1)CC2	NCI/ADR-RES	> 100 µM (inactive)
O=S(=O)(CC(O)C(Cl)(Cl)Cl)NNc1ccccc1 (stereo not given)	NCI/ADR-RES	> 100 µM (inactive)

----------
- System: SF-295
- protocol-description: NCI tumour cell line growth inhibition, 48 h
The source made the active and inactive calls. No stated cut-off is given here; in the data, active = GI50 up to about 1.1 µM and inactive = higher.
Outcome codes: active, inactive

compound	category
Cc1cc(C)c(S(=O)(=O)N(CCCN)OCCCON(CCCN)S(=O)(=O)c2c(C)cc(C)cc2C)c(C)c1	inactive
CSCCC(NC(=O)C(Cc1c[nH]c2ccccc12)NC(=O)CCNC(=O)OC(C)(C)C)C(=O)NC(CC(=O)O)C(=O)NC(Cc1ccccc1)C(N)=O (stereo not drawn)	inactive
CN[C@H]1CC[C@]23C[C@]24CC[C@]2(C)[C@@H]([C@H](C)N(C)C)CC[C@@]2(C)[C@@H]4CC[C@H]3C1(C)C	inactive
CC[C@@]1(O)C(=O)OCc2c1cc1n(c2=O)Cc2c-1nc1ccc(N)cc1c2CC[Si](C)(C)C	active
COc1cc2c(c(OC)c1O)-c1ccc(OC)c(=O)cc1[C@@H](NC(=O)C(F)(F)F)CC2	active
N#Cc1ccccc1Sc1ccccc1N	inactive
CCC1=C(CC2NCCc3ccccc32)CC2c3cc(OC)c(OC)cc3CCN2C1 (stereo not drawn)	active
CC1Cc2cc(O)ccc2C2[C@@H]1C1CC[C@H](O)[C@@]1(C)C[C@@H]2O[N+](=O)[O-] (stereo partly drawn)	inactive

----------
Entries and their GI50 values follow.
- Tested on: Malme-3M
- protocol-description: NCI tumour cell line growth inhibition, 48 h
Active and inactive are the calls of the source. Cut-off read from the data, not from the text of the source: active = GI50 up to about 1.1 µM and inactive = higher.

compound	GI50
O=c1[nH]nc(Cc2ccccc2)n1/N=C\CC/C=N\n1c(Cc2ccccc2)n[nH]c1=O	24.7 µM (inactive)
C=C(C(=O)O)C1CCC(CC/C=C(\C)CC/C=C(\C)CCC=C(C)C)CO1 (configuration not stated)	21.5 µM (inactive)
C=CC[P@]1(=O)O[C@H](c2ccccc2)[C@H](C)N1C	> 100 µM (inactive)
CCOC(=O)CCN1C(=O)c2ccc(NC(=O)C(=O)O)cc2S1(=O)=O	> 100 µM (inactive)
CC(C)[Si](CC1=CCCCC12C(=O)N(COCC[Si](C)(C)C)c1ccccc12)(C(C)C)C(C)C (configuration not stated)	> 100 µM (inactive)
CC(C)OC(=O)/C=C/C(=O)O/C=C/[N+](=O)[O-]	29.6 µM (inactive)
CC1=C2CCCC2=C/C(=N/Nc2ccc([N+](=O)[O-])cc2[N+](=O)[O-])CC1	> 100 µM (inactive)
O=c1c2ccccc2n2nnc3ccc(NCCNCCO)c1c32	1.87 µM (inactive)
CNC(=S)/C(C#N)=C(\N)N1CCCC1	> 100 µM (inactive)
O=S1(=O)OCCOS(=O)(=O)C1F	> 100 µM (inactive)
c1ccc(-c2cccc(-c3ccccn3)n2)nc1 [TERPYRIDINE]	0.181 µM (active)
Clc1cccc(Cl)c1C1SCc2nc3ncccc3n21 (configuration not stated)	55.8 µM (inactive)
COC(=O)CCC1(C)C2CCC1(C)/C(=N/O)C2 (configuration not stated)	> 100 µM (inactive)
O=C(/C=C/c1ccc(-c2ccccc2)cc1)NCc1ccc(C(=O)NCc2ccccc2)cc1	> 100 µM (inactive)
c1ccc2c(c1)cc(C1NCCc3nc[nH]c31)c1ccccc12 (configuration not stated)	30.6 µM (inactive)
O=C1SC(c2ccccc2)(c2ccccc2)c2ccccc21	> 100 µM (inactive)
C=CCN1C(=O)C[C@H](Cc2ccccc2)NC(=O)C[C@H](Cc2ccccc2)N(CC=C)C(=O)C[C@H](Cc2ccccc2)NC(=O)C[C@@H]1Cc1ccccc1	3.81 µM (inactive)
CCCCCCCCCCCCCCCC(=O)OCC1OC(n2ccc(N)nc2=O)C(O)C1O (configuration not stated)	5.28 µM (inactive)
CCOC(=O)c1c(N2CCCC2)ncn(C)c1=S	> 100 µM (inactive)
COC(=O)/C(=C1\OC(=O)C(c2ccc(Cl)cc2)=C1O)c1ccc(Cl)cc1	16.2 µM (inactive)
Nc1nc(N)c2c3c(cnc2n1)CC(c1ccccc1)CC3 (configuration not stated)	31.5 µM (inactive)
Cc1cc2c(s1)C(N)CC2=O (configuration not stated)	> 100 µM (inactive)
CCOC(=O)c1c2c(n3ccccc13)C(=O)c1ccccc1C2=O	7.91 µM (inactive)
CC(=O)OCCOCn1c2c(c(=S)[nH]c1=O)CCC2	> 100 µM (inactive)
Cc1nc2c(sc(=S)n2-c2ccccc2)c2nc3ncccc3n12	> 100 µM (inactive)
Cn1c(N)c(-c2c3ccccc3nc3ccccc23)c(=O)n(C)c1=O	> 100 µM (inactive)
CC(C)CC/N=c1/cc2n(-c3ccc(Cl)cc3)c3ccccc3nc-2cc1Nc1ccc(Cl)cc1	11.9 µM (inactive)
COC(=O)/C=C1/OC(c2ccc(OC)cc2)=C(Cl)C1=O	16.2 µM (inactive)
N[C@H](C(=O)O)[C@H](Cl)CC(=O)O	> 100 µM (inactive)
N#C/C1=C(\N)CCSSSC1	34.5 µM (inactive)
COc1c(N2CCCCC2)c2c(=O)c3ccccc3oc2c2cc(C)oc12	19.3 µM (inactive)
Cc1cc(-c2nc3cc(F)ccc3s2)ccc1N	40.8 µM (inactive)
COc1cc(CN(C)N2C(=O)c3cccc4cc([N+](=O)[O-])cc(c34)C2=O)cc(OC)c1OC	> 100 µM (inactive)
CCOC(=O)CC1NC(=O)CS1 (configuration not stated)	> 100 µM (inactive)
Cn1c(=O)c2c(nc3n(C)c(=O)c4ccccc4n23)n(C)c1=O	> 49.3 µM (inactive)
O=C1NC2(CCCC2)C(=O)C12CCCC2	> 100 µM (inactive)
CC1=NN(c2cccc(Cl)c2)C2(C1=C/C=C/c1ccccc1)C(Cl)C(=O)N2c1nc2ccccc2s1 (configuration not stated)	39 µM (inactive)
COc1ccc(C(=O)O[C@H]2CC[C@@]3(C)[C@@H]4CC[C@H]5[C@]6(O)C[C@H](O)[C@@]7(O)[C@@H](CN8C[C@@H](C)CC[C@H]8[C@@]7(C)O)[C@]6(O)C[C@@]53OC24O)cc1OC [VERATRIDINE]	> 100 µM (inactive)
Cc1ccc(/N=N/c2c(O)ccc3cc(S(=O)(=O)O)ccc23)c(C)c1	> 100 µM (inactive)
CN[C@H]1CC[C@]23C[C@]24CC[C@]2(C)[C@@H]([C@H](C)N(C)C)CC[C@@]2(C)[C@@H]4CC[C@H]3C1(C)C	17.1 µM (inactive)
Oc1ccc2ccccc2c1C(c1ccc(Cl)cc1)c1c(O)ccc2ccccc12	2 µM (inactive)
N=C(N)/N=C(\N)Nc1ccc(C(=O)O)cc1	> 100 µM (inactive)
